tested on: Mus musculus; test: Antibacterial activity was determined against MRSA 5038 at a challenge dose of 1.00*10e7 (cells/mouse) administered subcutaneously; assay type: functional; conditions: sc
ED50 values, listed per item
Numeric answer only, unit mg/kg assumed.

A selection of reference data follows.
- Smiles Representation: "C[n+]1ccc(SCC2=C(C(=O)O)N3C(=O)[C@@H](NC(=O)/C(=N\\OC4CCCC4)c4csc(N)n4)[C@H]3CO2)cc1.O=S(=O)([O-])O"
  Assay Target: "Mus musculus"
  Unit Tag: "mg/kg"
  ED50: 3.4
- Smiles Representation: "CN[C@H](CC(C)C)C(=O)N[C@H]1C(=O)N[C@@H](CC(N)=O)C(=O)N[C@H]2C(=O)N[C@H]3C(=O)N[C@H](C(=O)N[C@H](C(=O)O)c4cc(O)cc(O)c4-c4cc3ccc4O)[C@H](O)c3ccc(c(Cl)c3)Oc3cc2cc(c3O[C@@H]2O[C@H](CO)[C@@H](O)[C@H](O)[C@H]2O[C@H]2C[C@](C)(N)[C@H](O)[C@H](C)O2)Oc2ccc(cc2Cl)[C@H]1O"
  Assay Target: "Mus musculus"
  Unit Tag: "mg/kg"
  ED50: 2.7
- Smiles Representation: "CNC(=O)C[n+]1ccc(SCC2=C(C(=O)O)N3C(=O)[C@@H](NC(=O)/C(=N\\OC4CCCC4)c4csc(N)n4)[C@H]3CO2)cc1.O=S(=O)([O-])O"
  Assay Target: "Mus musculus"
  Unit Tag: "mg/kg"
  ED50: 2.27

Attention now shifts to the item below.
get_value(item= CC(=O)C[n+]1ccc(SCC2=C(C(=O)O)N3C(=O)[C@@H](NC(=O)/C(=N\OC4CCCC4)c4csc(N)n4)[C@H]3CO2)cc1.O=S(=O)([O-])O , readout=ED50) returns 2.76
